PROTOCOL_TEXT: Half life in BALB/c mouse
Assay type: ADME, organism-based
EXPERIMENTAL_PARAMETERS: in vivo
MEASUREMENT_NAME: half-life (h)
Please respond with the number in h and leave the unit unwritten.

What value of half-life has been recorded for this entry: Nc1nc(Nc2ccc([C@H]3CC[C@H](N4CCOCC4)CC3)cc2)nn1-c1ccccn1
15

###

Test system: TF-1
PROTOCOL_TEXT: cells
EXPERIMENTAL_PARAMETERS: Homo sapiens, TF-1, 72 h
Description: Cytotoxicity against human TF1 cells expressing PDGFR-beta assessed as cell viability after 72 hrs by resazurin dye based fluorescence assay
MEASUREMENT_NAME: IC50 (nM)
Reply with just the number (in nM).

// IC50 lookup, key: Nc1nc(Nc2ccc([C@H]3CC[C@H](N4CCOCC4)CC3)cc2)nn1-c1ccccn1
330
